Assay: Chrom LogP of maytansinoid conjugates
Format: physicochemical
This listing pairs compounds with measured chromatographic logP.

COc1cc2cc(c1Cl)N(C)C(=O)C[C@H](OC(=O)[C@H](C)N(C)C(=O)CCSSC[C@H](NC(=O)[C@@H]1CSSC[C@H](NC(=O)[C@H](N)Cc3ccccc3)C(=O)N[C@@H](Cc3ccc(O)cc3)C(=O)N[C@H](Cc3c[nH]c4ccccc34)C(=O)N[C@@H](CCCCNC(=O)NCCCCCCN)C(=O)N[C@@H]([C@@H](C)O)C(=O)N1)C(N)=O)[C@]1(C)O[C@H]1[C@H](C)[C@@H]1C[C@@](O)(NC(=O)O1)[C@H](OC)/C=C/C=C(\C)C2 [Conjugate 56]
1.92

In the following, a different compound is considered.
Q. chromatographic logP lookup needed for CCCCCCNC(=O)[C@@H](NC(=O)[C@@H]1CSSC[C@H](NC(=O)[C@@H](Cc2ccccc2)NC(=O)NCCSSCCC(=O)N(C)[C@@H](C)C(=O)O[C@H]2CC(=O)N(C)c3cc(cc(OC)c3Cl)C/C(C)=C/C=C/[C@@H](OC)[C@@]3(O)C[C@H](OC(=O)N3)[C@@H](C)[C@@H]3O[C@@]23C)C(=O)N[C@@H](Cc2ccc(O)cc2)C(=O)N[C@H](Cc2c[nH]c3ccccc23)C(=O)N[C@@H](CCCCN)C(=O)N[C@@H]([C@@H](C)O)C(=O)N1)[C@@H](C)O [Conjugate 52] , thanks.
A. 3.24

---

Experiment: Ligand charge of maytansinoid conjugates
Format: physicochemical
Observation type: Ligand charge

COc1cc2cc(c1Cl)N(C)C(=O)C[C@H](OC(=O)[C@H](C)N(C)C(=O)CCSSC(C)(C)[C@H](NC(=O)[C@@H](NC(=O)[C@@H]1CSSC[C@H](NC(=O)[C@@H](Cc3ccccc3)NCc3ccccc3)C(=O)N[C@@H](Cc3ccc(O)cc3)C(=O)N[C@H](Cc3c[nH]c4ccccc34)C(=O)N[C@@H](CCCCN)C(=O)N[C@@H]([C@@H](C)O)C(=O)N1)[C@@H](C)O)C(N)=O)[C@]1(C)O[C@H]1[C@H](C)[C@@H]1C[C@@](O)(NC(=O)O1)[C@H](OC)/C=C/C=C(\C)C2 [Conjugate 17]
+2

Q. Ligand charge lookup needed for CCNC(=O)[C@@H](NC(=O)[C@@H]1CSSC[C@H](NC(=O)[C@@H](Cc2ccccc2)NC(=O)NCCSSCCC(=O)N(C)[C@@H](C)C(=O)O[C@H]2CC(=O)N(C)c3cc(cc(OC)c3Cl)C/C(C)=C/C=C/[C@@H](OC)[C@@]3(O)C[C@H](OC(=O)N3)[C@@H](C)[C@@H]3O[C@@]23C)C(=O)N[C@@H](Cc2ccc(O)cc2)C(=O)N[C@H](Cc2c[nH]c3ccccc23)C(=O)N[C@@H](CCCCN)C(=O)N[C@@H]([C@@H](C)O)C(=O)N1)[C@@H](C)O [Conjugate 53] , thanks.
A. +1

Q. // next record COc1cc2cc(c1Cl)N(C)C(=O)C[C@H](OC(=O)[C@H](C)N(C)C(=O)CCSSC(C)(C)[C@H](NC(=O)[C@@H]1CSSC[C@H](NC(=O)[C@@H](Cc3ccccc3)NC(=O)NCc3ccccc3)C(=O)N[C@@H](Cc3ccc(O)cc3)C(=O)N[C@H](Cc3c[nH]c4ccccc34)C(=O)N[C@@H](CCCCN)C(=O)N[C@@H]([C@@H](C)O)C(=O)N1)C(N)=O)[C@]1(C)O[C@H]1[C@H](C)[C@@H]1C[C@@](O)(NC(=O)O1)[C@H](OC)/C=C/C=C(\C)C2 [Conjugate 7]
A. +1

Q. // next record COc1cc2cc(c1Cl)N(C)C(=O)C[C@H](OC(=O)[C@H](C)N(C)C(=O)CCSSC(C)(C)[C@H](NC(=O)[C@@H]1CSSC[C@H](NC(=O)[C@@H](Cc3ccccc3)NC(=O)NCc3ccc(C(F)(F)F)cc3)C(=O)N[C@@H](Cc3ccc(O)cc3)C(=O)N[C@H](Cc3c[nH]c4ccccc34)C(=O)N[C@@H](CCCCN)C(=O)N[C@@H]([C@@H](C)O)C(=O)N1)C(N)=O)[C@]1(C)O[C@H]1[C@H](C)[C@@H]1C[C@@](O)(NC(=O)O1)[C@H](OC)/C=C/C=C(\C)C2 [Conjugate 15]
A. +1

Q. // next record CCNC(=O)N[C@H](Cc1ccccc1)C(=O)N[C@H]1CSSC[C@@H](C(=O)N[C@H](C(=O)N[C@H](C(N)=O)C(C)(C)SSCCC(=O)N(C)[C@@H](C)C(=O)O[C@H]2CC(=O)N(C)c3cc(cc(OC)c3Cl)C/C(C)=C/C=C/[C@@H](OC)[C@@]3(O)C[C@H](OC(=O)N3)[C@@H](C)[C@@H]3O[C@@]23C)[C@@H](C)O)NC(=O)[C@H]([C@@H](C)O)NC(=O)[C@H](CCCCN)NC(=O)[C@@H](Cc2c[nH]c3ccccc23)NC(=O)[C@H](Cc2ccc(O)cc2)NC1=O [Conjugate 16]
A. +1

Q. // next record COc1cc2cc(c1Cl)N(C)C(=O)C[C@H](OC(=O)[C@H](C)N(C)C(=O)CCSSC(C)(C)[C@H](NC(=O)[C@@H]1CSSC[C@H](NC(=O)[C@H](N)Cc3ccccc3)C(=O)N[C@@H](Cc3ccc(O)cc3)C(=O)N[C@H](Cc3c[nH]c4ccccc34)C(=O)N[C@@H](CCCCNC(=O)NCCCCCCN)C(=O)N[C@@H]([C@@H](C)O)C(=O)N1)C(N)=O)[C@]1(C)O[C@H]1[C@H](C)[C@@H]1C[C@@](O)(NC(=O)O1)[C@H](OC)/C=C/C=C(\C)C2 [Conjugate 57]
A. +2
